# test-target: UniProtKB P29476
# Sequence (P29476 whole entry): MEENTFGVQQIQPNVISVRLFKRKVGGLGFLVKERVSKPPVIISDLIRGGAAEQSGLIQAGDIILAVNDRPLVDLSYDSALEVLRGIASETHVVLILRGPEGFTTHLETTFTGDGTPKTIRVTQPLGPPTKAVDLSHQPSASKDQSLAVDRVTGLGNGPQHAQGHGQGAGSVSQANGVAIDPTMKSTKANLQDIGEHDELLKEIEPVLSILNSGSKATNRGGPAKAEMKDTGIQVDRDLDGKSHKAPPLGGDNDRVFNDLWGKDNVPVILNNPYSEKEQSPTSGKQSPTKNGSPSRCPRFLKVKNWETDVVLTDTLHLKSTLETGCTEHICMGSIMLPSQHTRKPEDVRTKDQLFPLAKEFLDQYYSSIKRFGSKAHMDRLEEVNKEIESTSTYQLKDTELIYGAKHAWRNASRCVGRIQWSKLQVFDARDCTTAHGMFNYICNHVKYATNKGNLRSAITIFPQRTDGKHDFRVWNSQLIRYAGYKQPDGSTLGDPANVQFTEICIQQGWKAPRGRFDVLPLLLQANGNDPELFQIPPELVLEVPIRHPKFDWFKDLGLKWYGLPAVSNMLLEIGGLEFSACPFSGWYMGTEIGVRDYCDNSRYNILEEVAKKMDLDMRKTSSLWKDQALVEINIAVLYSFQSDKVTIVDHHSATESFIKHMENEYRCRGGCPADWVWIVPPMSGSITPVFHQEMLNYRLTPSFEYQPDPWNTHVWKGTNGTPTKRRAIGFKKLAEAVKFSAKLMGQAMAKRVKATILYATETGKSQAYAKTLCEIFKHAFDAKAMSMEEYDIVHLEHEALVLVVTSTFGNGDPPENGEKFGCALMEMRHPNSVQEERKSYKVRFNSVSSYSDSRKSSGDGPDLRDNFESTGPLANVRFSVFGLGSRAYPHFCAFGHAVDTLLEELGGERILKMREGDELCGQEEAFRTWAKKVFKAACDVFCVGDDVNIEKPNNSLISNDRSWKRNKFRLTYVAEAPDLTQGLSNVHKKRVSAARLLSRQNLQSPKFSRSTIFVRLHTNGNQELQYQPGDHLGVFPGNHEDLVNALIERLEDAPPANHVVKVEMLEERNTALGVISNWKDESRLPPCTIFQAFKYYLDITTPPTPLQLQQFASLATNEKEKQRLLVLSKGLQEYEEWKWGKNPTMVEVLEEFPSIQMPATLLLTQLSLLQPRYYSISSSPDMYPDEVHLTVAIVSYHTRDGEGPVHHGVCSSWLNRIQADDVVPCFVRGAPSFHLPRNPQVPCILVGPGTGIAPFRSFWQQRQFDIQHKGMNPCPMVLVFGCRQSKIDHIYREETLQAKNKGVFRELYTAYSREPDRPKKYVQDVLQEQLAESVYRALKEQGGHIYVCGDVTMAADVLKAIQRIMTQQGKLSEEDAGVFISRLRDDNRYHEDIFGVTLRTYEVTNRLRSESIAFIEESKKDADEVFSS
# experimental-details: Inhibition of nNOS in rat cerebellum homogenates assessed as reduction in conversion of L-[3H]arginine to L-[3H]citrulline at 100 uM
# Type: tissue-based
readout-label: inhibition (%)
Please reply with the bare figure in % and do not write the unit itself.

Query block: Tell me inhibition reported for Cn1ncc2c([N+](=O)[O-])cccc21
Result block: 86

Query block: Indicate the recorded inhibition value for this molecule: Cn1cc2c(Br)cccc2n1
Result block: 19

Query block: Assign inhibition to the following record: Cn1ncc2c(Br)cccc21
Result block: 75

Query block: Determine from records and report inhibition for N#Cc1cccc2[nH]ncc12
Result block: 63

Query block: Dear colleague, please send me the reported inhibition for CCn1cc2c(Br)cccc2n1 when you can.
Result block: 0

Query block: Quickly give me recorded inhibition for Cn1cc2c([N+](=O)[O-])cccc2n1
Result block: 34

Query block: Answer with the recorded inhibition for the molecule listed here: CCn1cc2c([N+](=O)[O-])cccc2n1
Result block: 34

Query block: Consider the molecule CCn1ncc2c([N+](=O)[O-])cccc21 and give its recorded inhibition.
Result block: 67

Query block: Return inhibition (reported value) for this molecule: CCn1ncc2c(Br)cccc21
Result block: 61
